Data origin, for the record: PubChem BioAssay (NCI)

tested on: CAKI-1 renal; test: NCI-60 one-dose screen, 48 h; settings: 10 µM
This is part of a sample that, as a whole, favours compounds with a hit. Of some 83,000 tested, about 20% had one in any assay. Active and inactive are the calls of the source. How the source made its calls: active means growth percent below 10; inactive means the rest.
Possible outcomes: 1 for active, -1 for inactive

INSERT INTO assay_data (molecule, assay_target, group) VALUES
  ('COc1cc2nc(Nc3cccc(C(=O)O)c3)nc(N)c2cc1OC', 'CAKI-1 renal', -1),
  ('CCOC(=O)N1C=CC2C=CC1C1C=CC=CC2N1C(=O)OCC (stereo unspecified)', 'CAKI-1 renal', -1),
  ('CCOC(=O)N/N=C\C(C)=N\NC(=O)OCC', 'CAKI-1 renal', -1),
  ('C#Cc1ccc(-n2c(/C=C/c3ccc4ccccc4n3)nc3ncccc3c2=O)cc1', 'CAKI-1 renal', 1),
  ('COc1cc(C)ccc1C(=O)c1ccc(C)cc1OC', 'CAKI-1 renal', -1),
  ('CCN(CC)CCCOCCCNc1cc(OC)cc2cccnc12', 'CAKI-1 renal', -1);

* * *

tested on: CCRF-CEM leukemia; assay: NCI-60 one-dose screen, 48 h (100 = growth as untreated, 0 = no growth, -100 = all killed); settings: 10 µM
About 83,000 compounds went through this panel and 20% of them were active in at least one assay; those are over-represented in the sample as a whole.
In this section, each of the compounds is paired with its reported growth.
measured_endpoint: growth (%)

INSERT INTO measurements (compound, assay_target, measured_endpoint, measure_unit, result_value) VALUES
  ('CSc1cc(SC)ncn1', 'CCRF-CEM leukemia', 'growth', '%', 94),
  ('Cc1cc(N(CCCNc2ccnc3cc(Cl)ccc23)Cc2cccs2)nc(Cl)n1', 'CCRF-CEM leukemia', 'growth', '%', 42),
  ('O=C(C[n+]1ccccc1)c1ccc2ccccc2c1', 'CCRF-CEM leukemia', 'growth', '%', 95.9),
  ('COc1ccc(-c2nc(-c3nc4cc(Cl)c(Cl)cc4[nH]3)c3ccccn23)cc1', 'CCRF-CEM leukemia', 'growth', '%', 79.1),
  ('O=C(Nc1ccc(CN2CCc3nc4cc(O)c(O)cc4cc32)cc1)c1ccc(Cl)c(Cl)c1', 'CCRF-CEM leukemia', 'growth', '%', 78),
  ('CCOC(=O)c1ccc(NC(=O)Nc2ncc(Cl)cc2Cl)cc1', 'CCRF-CEM leukemia', 'growth', '%', 81.7),
  ('O=C1NC(=O)c2ncccc21', 'CCRF-CEM leukemia', 'growth', '%', 99.1),
  ('CCOC(=O)C1(CC(C)C)CCOC1=O (stereo unspecified)', 'CCRF-CEM leukemia', 'growth', '%', 92.2),
  ('COc1ccc(Nc2ccnc(NCCNc3ccnc4cc(Cl)ccc34)n2)cc1', 'CCRF-CEM leukemia', 'growth', '%', 42.1),
  ('c1ccc(CO[C@H]2CO[C@H]3[C@@H]2OC[C@H]3OCc2ccccc2)cc1', 'CCRF-CEM leukemia', 'growth', '%', 99.2),
  ('O=C(CCCCC[P+](c1ccccc1)(c1ccccc1)c1ccccc1)NC(COC(=O)C(Cl)Cl)(COC(=O)C(Cl)Cl)COC(=O)C(Cl)Cl', 'CCRF-CEM leukemia', 'growth', '%', 88.7);
